Each recorded value in this set is attributed to ChEMBL document CHEMBL1201862.

# Tested on: OVCAR-4
# assayExplanation: NCI tumour cell line growth inhibition, 48 h
Calls of active or inactive are those of the source. Cut-off read from the data, not from the text of the source: active = GI50 up to about 1.1 µM and inactive = higher.
Field: GI50. Provide a value for each of the molecules that follow.

*Q* Give the measured GI50 of `O=C(c1ccc(Cl)c(Cl)c1)N(C(=O)N1CCN(c2ccccc2)CC1)S(=O)(=O)c1ccccc1` .
*A* 24.2 µM (inactive)

*Q* For `CCN1CSC(=S)N(CC)C1` then?
*A* > 100 µM (inactive)

*Q* Lookup `CCOC(=O)C1=NC(c2ccccc2)(c2ccccc2)OC1=C(Cl)Cl`
*A* 63 µM (inactive)

*Q* Now the molecule `CCCCCCCCCc1cc(=O)c2c(O)cccc2o1`
*A* 50.7 µM (inactive)

*Q* Continue with `Cc1ccc(S(=O)(=O)SCc2ccccc2CSS(=O)(=O)c2ccc(C)cc2)cc1`
*A* 18.7 µM (inactive)

*Q* And what about the molecule `Cc1cnc2sn(-c3ccc(Br)cc3)c(=O)c2c1` ?
*A* 26.2 µM (inactive)

*Q* One more molecule: `CCOC(=O)Nc1cc2nnc(-c3ccccc3)nc2c(N)n1`
*A* 14.9 µM (inactive)

*Q* Note, next up: COc1cc(C(c2cccc3ccccc23)N2C(=O)CCC2C(=O)NCc2ccccc2)cc(OC)c1OC (stereo unspecified)
*A* > 100 µM (inactive)

*Q* Would you kindly repeat that for `COc1c(-c2nc3ccc(N4CCN(C)CC4)cc3[nH]2)cc(OC)c2[nH]c(CO)nc12` ?
*A* 72.6 µM (inactive)

*Q* Here is the next molecule: `O=c1c2cc(S(=O)(=O)O)ccc2nc(COc2ccc(Oc3ccc(Cl)cc3Cl)cc2)n1-c1ccc(Oc2ccc(Cl)cc2)cc1Cl`
*A* 25.2 µM (inactive)

*Q* Also `O=C(Cn1c2c(c3ccccc31)CCCC2)NC1CCCCC1` ?
*A* 94.2 µM (inactive)

*Q* Same again, this time with `O=C(Cc1ccccc1)NN1C(=O)/C(=C\c2ccccc2)S/C1=N\c1ccccc1`
*A* > 100 µM (inactive)

*Q* Then `CC(=O)c1cccc(N2COC(C)(C)c3nc4ccccc4n3C2)c1` ?
*A* 14.3 µM (inactive)

*Q* Query `COC(=O)c1cc2ccc(O)c(O)c2cn1` next
*A* 10.1 µM (inactive)

*Q* Now try `COc1ccc2c3c(c4cc(OC)c(OC)cc4c2c1)C[C@H]1CCCCN1C3` .
*A* 0.005 µM (active)

*Q* Please answer likewise for `CN(C)Cc1cc(C(=O)/C=C/c2ccc(/C=C/C(=O)c3cc(CN(C)C)c(O)c(CN(C)C)c3)cc2)cc(CN(C)C)c1O`
*A* 50.6 µM (inactive)

*Q* Then `O=C1c2ccccc2C(=O)N1CCc1nc(-c2ccccc2)c[nH]1` ?
*A* > 100 µM (inactive)

*Q* Another molecule to look at: `C[C@]12CC[C@@H]3c4ccc(O)cc4CC[C@H]3[C@@H]1C/C(=C\c1ccc(C#N)cc1)C2=O`
*A* 40.5 µM (inactive)

*Q* Please give the result for CC(=O)OC1CCn2nnc(COC(=O)NC(C)C)c21 (stereo unspecified) too.
*A* > 100 µM (inactive)

*Q* Then what about the molecule `COc1ccc2c(c1)C=C(C(C)(C)C)NS2(=O)=O` ?
*A* > 100 µM (inactive)

*Q* Param item: `O=C(O)/C(=C/c1ccccc1[N+](=O)[O-])c1ccccc1`
*A* > 100 µM (inactive)
